All values here come from patent US20140308201A1.

# system.tested: T1, Human FGFR2 IIIb D1-3 (human)
# T1 construct: Extracellular domains D1-3 with C-terminal tag, made in HEK293T; also called recombinant human FGFR2 IIIb; hFGFR2
# T1 chain: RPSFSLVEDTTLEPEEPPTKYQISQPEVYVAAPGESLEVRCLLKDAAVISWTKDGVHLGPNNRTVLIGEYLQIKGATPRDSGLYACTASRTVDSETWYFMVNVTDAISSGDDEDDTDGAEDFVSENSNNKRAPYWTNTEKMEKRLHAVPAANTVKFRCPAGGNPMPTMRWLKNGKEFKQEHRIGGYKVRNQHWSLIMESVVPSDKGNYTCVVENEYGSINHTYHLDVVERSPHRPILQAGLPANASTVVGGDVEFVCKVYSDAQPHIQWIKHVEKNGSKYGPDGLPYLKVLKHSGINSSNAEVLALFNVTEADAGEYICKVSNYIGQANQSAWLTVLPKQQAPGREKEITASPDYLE
# experiment.summary: SPR Biacore, IgG captured via anti-human Fc, soluble FGFR as analyte
pKd: −log10 of the molar value.

{"binder": "mAb11725 (antibody, human IgG1, lambda, V domains shown, HuCAL human IgG1) VH: QVQLLESGGGLVQPGGSLRLSCAASGFTFNTYWLHWVRQAPGKGLEWVSVISSDSSSTYYADSVKGRFTISRDNSKNTLYLQMNSLRAEDTAVYYCARDSRLDYWGQGTLVTVSS VL: DIELTQPPSVSVSPGQTASITCSGDSIGDTYVDWYQQKPGQAPVLVIYDDIDRPSGIPERFSGSNSGNTATLTISGTQAEDEADYYCYVYAWTGTSNVFGGGTKLTVLG", "pKd": 7.59}
{"binder": "mAb12439 (antibody, human IgG1, kappa, V domains shown, HuCAL human IgG1) VH: QVQLVQSGAEVKKPGASVKVSCKASGYTFTSYDISWVRQAPGQGLEWMGWINPYNGGTNYAQKFQGRVTMTRDTSISTAYMELSRLRSEDTAVYYCAREGSGMIVYPGWSYAFDYWGQGTLVTVSS VL: DIQMTQSPSSLSASVGDRVTITCRASQDISNDLGWYQQKPGKAPKLLIYAASSLQSGVPSRFSGSGSGTDFTLTISSLQPEDFATYYCQQHYHTPNTFGQGTKVEIKR", "pKd": 7.82}
{"binder": "mAb12422 (antibody, human IgG1, kappa, V domains shown, HuCAL human IgG1) VH: QVQLVQSGAEVKKPGSSVKVSCKASGGTFSSYAISWVRQAPGQGLEWMGYISPYMGETHYAQKFQGRVTITADESTSTAYMELSSLRSEDTAVYYCARESYEYFDIWGQGTLVTVSS VL: DIQMTQSPSSLSASVGDRVTITCRASQSISNDLAWYQQKPGKAPKLLIYATSILQSGVPSRFSGSGSGTDFTLTISSLQPEDFATYYCLQYYDYSYTFGQGTKVEIKR", "pKd": 8.29}
